Tested on: Apera spica-venti
assay_overview: greenhouse pre-emergence herbicidal test
Assay type: in vivo
measurement_setup: 31 g/ha
Method: The culture containers used were plastic flowerpots containing loamy sand with approximately 3.0% of humus as the substrate. The seeds of the test plants were sown separately for each species. […] The test period extended over 2 to 4 weeks. During this time, the plants were tended, and their response to the individual treatments was evaluated. […]
What herbicidal activity was measured for each of the following?
Numbers only, in %.

Past entries and their recorded results:
| smiles_data | observed_measurement |
| --- | --- |
| C#CCOc1c(Br)cc(F)c(Cl)c1Nc1nc(N)nc(C(C)(C)F)n1 | 100 |
| CCOc1c(F)cc(F)c(Cl)c1Nc1nc(N)nc(C(C)(C)F)n1 | 100 |
| CCOc1c(Br)cc(F)c(Cl)c1Nc1nc(N)nc(C(C)(C)F)n1 | 85 |

Write down the reported herbicidal activity of COc1c(Cl)cc(Br)c(C)c1Nc1nc(N)nc(C(C)(C)F)n1 , test system: Apera spica-venti.
95

All values here come from patent US20240150303A1.
